- System: DLD-1
- EXPERIMENTAL PROTOCOL: In vitro chemosensitivity, microtetrazolium (MTT) assay, DLD-1
- Assay type: cell-based
- TEST PARAMETERS: DLD-1 human colon adenocarcinoma, concentration reducing growth rate by 50% of untreated control
READOUT TYPE: IC50 (µM)
// units = µM; emit number, no label

N[C@@H](Cc1ccc(O)cc1)C(=O)NCCCNc1cccc2c1C(=O)c1ccccc1C2=O :: 2.1
N[C@H](Cc1ccccc1)C(=O)NCCCCNc1cccc2c1C(=O)c1ccccc1C2=O :: 8.6
CSCC[C@H](N)C(=O)NCCCNc1cccc2c1C(=O)c1ccccc1C2=O :: 4.1

// below: IC50 requested for another compound
The compound CC(C)(C)OC(=O)N[C@H](Cc1ccccc1)C(=O)NCCCNc1cccc2c1C(=O)c1ccccc1C2=O , tested on DLD-1, showed IC50 of 13.2

---

- Tested on: HRT-18
- EXPERIMENTAL PROTOCOL: In vitro chemosensitivity, microtetrazolium (MTT) assay, HRT-18
- Assay type: cell-based
- TEST PARAMETERS: HRT-18 human rectum adenocarcinoma, concentration reducing growth rate by 50% of untreated control
The reader will find reported pIC50 values listed item by item below.
Quick note: pIC50 values are minus log10 of concentrations in mol/L.

Look over these answered cases.
N[C@@H](Cc1ccc(O)cc1)C(=O)NCCCNc1cccc2c1C(=O)c1ccccc1C2=O [Example 15] :: 5.52
CC(C)(C)OC(=O)N[C@H](Cc1ccccc1)C(=O)NCCCNc1cccc2c1C(=O)c1ccccc1C2=O [Example 18] :: 5.11
CSCC[C@H](N)C(=O)NCCCNc1cccc2c1C(=O)c1ccccc1C2=O [Example 12] :: 4.98

// below: pIC50 requested for another compound
Measured pIC50 of N[C@H](Cc1ccccc1)C(=O)NCCCCNc1cccc2c1C(=O)c1ccccc1C2=O [Example 20] : 4.77
